Target: Phosphodiesterase 3 (Homo sapiens, UniProt Q14432+Q13370)
Test: Inhibition of human blood platelet c-AMP phosphodiesterase
Quantity: IC50 (µM)
Note: unit µM is implicit; provide only the numeric part.

Query: // query IC50 value for entry O=C1CCc2cc(-c3cccnc3)ccc2N1
Reply: 4.4

Query: Repeat with O=C1CCc2cc(-n3ccnc3)ccc2N1
Reply: 16

Query: Repeat with O=C1CCc2cc(C(c3ccccc3)n3ccnc3)ccc2N1 (stereo unspecified)
Reply: 40

Query: Repeat with Oc1ccc2cc(/C=C/n3ccnc3)ccc2n1
Reply: 4

Query: Repeat with O=C1CCc2cc(/C=C/n3ccnc3)ccc2N1
Reply: 6.4

Query: Repeat with CCCCCC(Cn1ccnc1)c1ccc2c(c1)CCC(=O)N2 (stereo unspecified)
Reply: 14

----------
Organism: Homo sapiens
Test: Inhibition of ADP-induced platelet aggregation of human PRP in the presence of pig aortal microsomes (PAM)
Assay type: functional
Quantity: IC50 (nM)
Note: unit nM is implicit; provide only the numeric part.

Query: // query IC50 value for entry Cc1c(Cn2ccnc2)c2ccccc2n1CCC(=O)O
Reply: 2000

----------
Molecular target: Thromboxane-A synthase (Homo sapiens)
Sequence (P24557 whole entry): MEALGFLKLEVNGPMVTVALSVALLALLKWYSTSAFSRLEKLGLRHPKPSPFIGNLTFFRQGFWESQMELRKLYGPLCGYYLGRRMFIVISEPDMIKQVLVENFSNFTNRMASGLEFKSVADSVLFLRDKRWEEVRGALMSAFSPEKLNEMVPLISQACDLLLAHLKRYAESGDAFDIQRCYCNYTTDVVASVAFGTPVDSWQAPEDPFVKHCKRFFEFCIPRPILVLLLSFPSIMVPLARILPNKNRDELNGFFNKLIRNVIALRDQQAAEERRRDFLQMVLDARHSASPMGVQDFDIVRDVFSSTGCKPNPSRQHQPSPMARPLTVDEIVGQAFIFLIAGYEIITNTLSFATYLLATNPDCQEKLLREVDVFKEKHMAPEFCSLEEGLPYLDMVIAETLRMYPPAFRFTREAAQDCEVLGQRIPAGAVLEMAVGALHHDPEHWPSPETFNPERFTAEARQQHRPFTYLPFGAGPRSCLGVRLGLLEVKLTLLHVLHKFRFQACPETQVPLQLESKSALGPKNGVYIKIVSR
Experiment: Compound was evaluated for the inhibition of human blood platelet, thromboxane A2 synthase
Give measured IC50 for each item. Keep answers brief.
Note: unit µM is implicit; provide only the numeric part.

Query: // query IC50 value for entry O=c1ccc2cc(/C=C/n3ccnc3)ccc2[nH]1
Reply: 0.38

Query: Repeat with O=C1CCc2cc(C(c3ccccc3)n3ccnc3)ccc2N1 (centres undefined)
Reply: 0.35

Query: Repeat with O=C1CCc2cc(-c3cccnc3)ccc2N1
Reply: 0.54

Query: Repeat with O=C1CCc2cc(-n3ccnc3)ccc2N1
Reply: 2
